# Tested system: T1, P-S396 Tau in Alzheimer brain extracts (human, UniProt P10636 2-758, phosphoserine at 396)
# T1 construct: Brain-derived; Defined by the western blot signal for P-S396; also called S-P396
# T1 sequence (P10636 other isoform, or with tags, fused parts or gaps limits assumed): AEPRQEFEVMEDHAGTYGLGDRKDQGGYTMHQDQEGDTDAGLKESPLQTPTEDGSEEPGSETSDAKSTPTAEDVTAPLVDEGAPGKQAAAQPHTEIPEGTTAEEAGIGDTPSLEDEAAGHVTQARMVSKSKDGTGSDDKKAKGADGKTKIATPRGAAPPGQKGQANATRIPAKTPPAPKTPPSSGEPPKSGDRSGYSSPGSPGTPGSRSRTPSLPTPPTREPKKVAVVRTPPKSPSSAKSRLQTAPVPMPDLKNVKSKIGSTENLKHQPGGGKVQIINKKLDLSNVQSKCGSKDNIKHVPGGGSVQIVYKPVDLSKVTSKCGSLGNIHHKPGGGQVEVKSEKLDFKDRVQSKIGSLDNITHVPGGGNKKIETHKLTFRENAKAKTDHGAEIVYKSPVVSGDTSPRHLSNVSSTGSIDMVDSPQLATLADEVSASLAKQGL
# Assay method text: immunodepletion of AD brain extract, P-S396 western blot
// reported percent decrease in the S-P396 signal at 75 ng antibody for each item listed
Metric: percent decrease in the S-P396 signal at 75 ng antibody

Binder	Observed result
Antibody N32Q (hC10-2_N32Q) (antibody, human IgG1, kappa, V domains shown) VH: QVQLVQSGAEVVKPGASVKISCKASGYTFTDRTIHWVRQAPGQGLEWIGYIYPGDGSTKYSQKFQGRATLTADTSASTAYMELSSLRSEDTAVYYCARRGAMDYWGQGTSVTVSS VL: DVQMTQSPSSLSASVGDRVTMTCQASQDTSIQLNWFQQKPGKAPKLLIYGASNLETGVPSRFSGSRSGTDFTLTISSLQPEDMATYYCLQHTYLPFTFGSGTKLEIKR	≥ 28%
hC10-2 variant N32Q_D55E (antibody, human IgG1, kappa, V domains shown, Chains are put together from the variant names: light chain N32Q and heavy chain D55E) VH: QVQLVQSGAEVVKPGASVKISCKASGYTFTDRTIHWVRQAPGQGLEWIGYIYPGEGSTKYSQKFQGRATLTADTSASTAYMELSSLRSEDTAVYYCARRGAMDYWGQGTSVTVSS VL: DVQMTQSPSSLSASVGDRVTMTCQASQDTSIQLNWFQQKPGKAPKLLIYGASNLETGVPSRFSGSRSGTDFTLTISSLQPEDMATYYCLQHTYLPFTFGSGTKLEIKR	16%
hC10-2 variant N32S_D55E (antibody, human IgG1, kappa, V domains shown, Chains are put together from the variant names: light chain N32S and heavy chain D55E; also called C10-2_N32S D55E) VH: QVQLVQSGAEVVKPGASVKISCKASGYTFTDRTIHWVRQAPGQGLEWIGYIYPGEGSTKYSQKFQGRATLTADTSASTAYMELSSLRSEDTAVYYCARRGAMDYWGQGTSVTVSS VL: DVQMTQSPSSLSASVGDRVTMTCQASQDTSISLNWFQQKPGKAPKLLIYGASNLETGVPSRFSGSRSGTDFTLTISSLQPEDMATYYCLQHTYLPFTFGSGTKLEIKR	≥ 28%
Antibody N32Q, A101T (hC10-2_N32Q_A101T) (antibody, human IgG1, kappa, V domains shown) VH: QVQLVQSGAEVVKPGASVKISCKASGYTFTDRTIHWVRQAPGQGLEWIGYIYPGDGSTKYSQKFQGRATLTADTSASTAYMELSSLRSEDTAVYYCARRGTMDYWGQGTSVTVSS VL: DVQMTQSPSSLSASVGDRVTMTCQASQDTSIQLNWFQQKPGKAPKLLIYGASNLETGVPSRFSGSRSGTDFTLTISSLQPEDMATYYCLQHTYLPFTFGSGTKLEIKR	≥ 28%
